biological target: human polyclonal IgG (human); experiment: SPR (Biacore), His-tagged fusion protein captured on Ni-NTA chip, human IgG injected
assay endpoint: kon (M⁻¹ s⁻¹)

{"binder": "fusion protein PG3 (designed binder) AYRLILNGRTLRGETTTEAVDAATAERVFRQYANDNGVDGEWTYDDATRTFTVTERPEVIDASELTPAVTPGAYRLILNGRTLRGETTTEAVDAATAERVFRQYANDNGVDGEWTYDDATRTFTVTERPEVIDASELTPAVTPGAYRLILNGRTLRGETTTEAVDAATAERVFRQYANDNGVDGEWTYDDATRTFTVTERPEVIDASELTPAVTGGGGCADDDDDDHHHHHH", "val": "1.12e+06"}

[A] fusion protein PL2 (designed binder) ATIRANLIYADGRTQTAEFRGTFEEATAEAYRYADLLPRENGRYTVDVADRGYTLNIRFAPGATIRANLIYADGRTQTAEFRGTFEEATAEAYRYADLLPRENGRYTVDVADRGYTLNIRFAGGGGGCADDDDDDHHHHHH
[B] fusion protein PG1 (designed binder) AYRLILNGRTLRGETTTEAVDAATAERVFRQYANDNGVDGEWTYDDATRTFTVTERPEVIDASELTPAVTGGGGCADDDDDDHHHHHH
In: Hi, I'm comparing A with B and wondering which one has the bigger number for kon. Any idea? Provide the label of your selected option as the answer.
Out: B
